Molecular target: human recombinant histamine H2 receptor (Homo sapiens)
Construct: expressed in transfected cells; host or cells: CHO-K1 cells
Sequence (P25021 whole entry): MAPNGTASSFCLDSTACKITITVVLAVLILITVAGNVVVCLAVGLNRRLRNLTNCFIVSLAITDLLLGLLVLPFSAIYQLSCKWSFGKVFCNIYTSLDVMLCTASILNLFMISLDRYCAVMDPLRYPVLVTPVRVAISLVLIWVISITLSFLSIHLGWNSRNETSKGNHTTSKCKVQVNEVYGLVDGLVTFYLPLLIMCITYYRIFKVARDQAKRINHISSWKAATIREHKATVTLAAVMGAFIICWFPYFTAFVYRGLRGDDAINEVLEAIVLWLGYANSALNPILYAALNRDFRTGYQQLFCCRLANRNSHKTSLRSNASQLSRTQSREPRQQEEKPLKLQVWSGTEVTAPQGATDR
Test: Histamine H2 radioligand binding ([125I]Aminopotentidine)
Details: compound concentration 1 μM; read-out: Percentage inhibition of ligand binding to H2 receptor
inhibition at 1 µM listing for selected molecules.

Molecule	System Name	inhibition at 1 µM
C/C(=C\n1c2c(c3cc(C)ccc31)CCN(C)C2)c1ccc(F)cc1	human recombinant histamine H2 receptor (Homo sapiens)	68%
Cc1ccc2c(c1)c1c(n2/C=C/c2ccccc2)CN(C)CC1	human recombinant histamine H2 receptor (Homo sapiens)	50%
C/C(=C\n1c2c(c3cc(C)ccc31)CCN(C)C2C)c1ccccc1F (stereo not shown)	human recombinant histamine H2 receptor (Homo sapiens)	90%
C/C(=C\n1c2c(c3cc(Cl)ccc31)CCN(C)C2)c1ccc(F)cc1	human recombinant histamine H2 receptor (Homo sapiens)	64%

###

Target: human recombinant serotonin (5-Hydroxytryptamine) 5-HT2C receptor (Homo sapiens, UniProt P28335)
Construct: expressed in transfected cells; host or cells: CHO-K1 cells
Sequence (P28335 33-458): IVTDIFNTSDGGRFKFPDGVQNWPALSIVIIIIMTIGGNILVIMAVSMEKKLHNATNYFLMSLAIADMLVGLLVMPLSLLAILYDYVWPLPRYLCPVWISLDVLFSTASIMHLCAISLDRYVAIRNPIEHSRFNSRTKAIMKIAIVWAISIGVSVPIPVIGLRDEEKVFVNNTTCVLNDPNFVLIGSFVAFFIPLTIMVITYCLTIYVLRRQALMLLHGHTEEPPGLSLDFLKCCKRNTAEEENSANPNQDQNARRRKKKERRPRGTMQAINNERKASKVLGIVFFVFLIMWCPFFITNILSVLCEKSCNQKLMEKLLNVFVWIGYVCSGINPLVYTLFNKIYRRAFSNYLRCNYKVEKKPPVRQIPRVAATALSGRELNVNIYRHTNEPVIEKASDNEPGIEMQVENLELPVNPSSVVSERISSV
Assay: Serotonin 5-HT2C radioligand binding ([3H]Mesulergine)
Settings: 1 h; read-out: Percent Inhibition of ligand binding Serotonin (1 μM ligand concentration) 5-HT2C
Decide using inhibition at 1 µM: a value greater than or equal to 90% is fulfilled, a smaller one is not fulfilled.

Compound	Class Assignment
CN1CCc2c(n(CC(O)c3ccccc3F)c3ccc(Cl)cc23)C1 (stereo not drawn) [Compound 59]	not fulfilled
CN1CCc2c(n(CCC3CCCC3)c3ccc(Cl)cc23)C1 [Compound 35]	not fulfilled
C/C(=C\n1c2c(c3cc(Cl)ccc31)CCN(C)C2C)c1ccc(Cl)cc1 (stereo not drawn) [Compound 99]	fulfilled
Cc1ccc2c(c1)c1c(n2CC(=O)N2CCCCC2)CN(C)CC1 [Compound 57]	not fulfilled
C/C(=C\n1c2c(c3cc(Cl)ccc31)CCN(C)C2)c1ccc(F)c(F)c1 [Compound 110]	fulfilled
CN1CCc2c(n(CCCC(=O)N3CCCCC3)c3ccc(Cl)cc23)C1 [Compound 44]	not fulfilled
C/C(=C/n1c2c(c3cc(C)ccc31)CCN(C)C2C)c1ccc(F)c(F)c1 (stereo not drawn) [Compound 175]	fulfilled
CCC1c2c(c3cc(C)ccc3n2C(=O)Cc2ccc(F)cc2)CCN1C (stereo not drawn) [Compound 159]	fulfilled
CC1c2c(c3cc(Cl)ccc3n2C#Cc2ccc(Cl)cc2)CCN1C (stereo not drawn) [Compound 132]	fulfilled

###

Molecular target: human recombinant adrenergic α2B receptor (Homo sapiens, UniProt P18089)
Construct: expressed in transfected cells; host or cells: CHO-K1 cells
Sequence (P18089 1-450): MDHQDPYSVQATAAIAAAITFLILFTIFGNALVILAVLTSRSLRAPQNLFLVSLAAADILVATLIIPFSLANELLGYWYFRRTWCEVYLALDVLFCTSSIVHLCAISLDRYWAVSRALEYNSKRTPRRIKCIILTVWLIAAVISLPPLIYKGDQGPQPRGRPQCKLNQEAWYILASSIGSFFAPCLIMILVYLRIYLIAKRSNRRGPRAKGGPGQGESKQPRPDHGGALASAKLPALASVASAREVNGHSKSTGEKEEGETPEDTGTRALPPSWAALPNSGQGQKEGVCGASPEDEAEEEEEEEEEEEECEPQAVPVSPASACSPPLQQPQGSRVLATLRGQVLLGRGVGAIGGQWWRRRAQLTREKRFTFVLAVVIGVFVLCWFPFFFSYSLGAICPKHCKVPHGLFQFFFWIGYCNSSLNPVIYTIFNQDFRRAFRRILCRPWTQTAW
Experiment: Adrenergic α2B radioligand binding ([3H]Rauwolscine)
Details: 1 h; read-out: Percent Inhibition of ligand binding Adrenergic (1 μM ligand conc.) α2B

Compound	Quantity Unit	inhibition at 1 µM
CCC1c2c(c3cc(Cl)ccc3n2C#Cc2ccc(F)cc2)CCN1C (stereo not drawn)	%	81
C/C(=C\n1c2c(c3cc(Cl)ccc31)CCN(C)C2C)c1ccccc1F (stereo not drawn)	%	82
Cc1ccc2c(c1)c1c(n2CCC2CCCCC2)CN(C)CC1	%	81

src = patent US9260429B2
